Source: patent US20240208992A1

- Target Desc: human F508del-CFTR (Homo sapiens, UniProt P13569, DEL508-508)
- Sequence (P13569 with tags, fused parts or gaps DEL508-508): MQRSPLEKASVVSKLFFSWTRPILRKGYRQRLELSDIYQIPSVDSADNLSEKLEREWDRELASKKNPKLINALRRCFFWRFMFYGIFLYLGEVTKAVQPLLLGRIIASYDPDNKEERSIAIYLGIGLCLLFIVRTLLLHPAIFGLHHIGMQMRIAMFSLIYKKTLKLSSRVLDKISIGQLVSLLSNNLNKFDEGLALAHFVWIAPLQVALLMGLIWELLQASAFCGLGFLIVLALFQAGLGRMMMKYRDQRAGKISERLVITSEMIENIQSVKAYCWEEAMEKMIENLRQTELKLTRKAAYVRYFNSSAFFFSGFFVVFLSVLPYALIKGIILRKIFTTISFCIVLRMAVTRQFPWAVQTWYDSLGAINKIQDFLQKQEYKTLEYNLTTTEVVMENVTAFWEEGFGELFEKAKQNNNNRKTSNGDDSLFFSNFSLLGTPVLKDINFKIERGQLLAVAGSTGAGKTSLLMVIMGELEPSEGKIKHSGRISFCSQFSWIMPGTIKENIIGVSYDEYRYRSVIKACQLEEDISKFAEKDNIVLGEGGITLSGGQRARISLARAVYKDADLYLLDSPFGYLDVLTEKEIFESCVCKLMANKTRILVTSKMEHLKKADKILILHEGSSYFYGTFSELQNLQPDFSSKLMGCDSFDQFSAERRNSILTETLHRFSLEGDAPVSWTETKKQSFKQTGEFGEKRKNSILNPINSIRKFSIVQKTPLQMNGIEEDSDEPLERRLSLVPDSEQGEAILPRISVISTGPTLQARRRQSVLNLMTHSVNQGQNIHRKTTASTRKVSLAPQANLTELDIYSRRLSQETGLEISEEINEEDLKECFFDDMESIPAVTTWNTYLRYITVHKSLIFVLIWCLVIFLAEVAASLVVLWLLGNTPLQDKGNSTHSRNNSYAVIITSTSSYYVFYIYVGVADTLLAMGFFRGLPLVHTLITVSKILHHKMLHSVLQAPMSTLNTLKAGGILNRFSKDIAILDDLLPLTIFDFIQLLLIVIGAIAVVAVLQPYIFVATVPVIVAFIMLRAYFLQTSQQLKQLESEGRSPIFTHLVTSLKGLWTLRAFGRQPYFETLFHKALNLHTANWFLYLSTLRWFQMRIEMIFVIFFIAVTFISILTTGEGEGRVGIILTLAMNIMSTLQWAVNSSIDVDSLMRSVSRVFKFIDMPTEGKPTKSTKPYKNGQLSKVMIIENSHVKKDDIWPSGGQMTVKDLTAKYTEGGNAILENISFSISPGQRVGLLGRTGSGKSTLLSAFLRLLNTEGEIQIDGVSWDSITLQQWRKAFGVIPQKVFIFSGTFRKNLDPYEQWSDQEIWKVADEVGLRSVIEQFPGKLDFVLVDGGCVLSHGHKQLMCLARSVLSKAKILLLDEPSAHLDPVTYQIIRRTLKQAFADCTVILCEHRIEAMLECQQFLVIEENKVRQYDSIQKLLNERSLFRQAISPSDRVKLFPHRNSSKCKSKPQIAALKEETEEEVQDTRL
- Test Details: F508del-CFTR cell surface expression (corrector activity), DiscoveRx ß-galactosidase complementation chemiluminescence assay in recombinant U2OS cell line;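 further: U2OS cells co-expressing ProLink-tagged F508del-CFTR and a membrane-anchored enzyme acceptor, where more surface CFTR restores β-galactosidase activity measured by chemiluminescence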
- Experimental Context: U2OS, in relation to Emax of corrector lumacaftor (=100%); arithmetic mean values
Threshold check on Emax: at or above 300% gives met, strictly below gives not met.

1) CC(C)C[C@H]1C(=O)N(C)C2(CC2)C(=O)N[C@H](Cc2ccccc2)COc2cnc3ccccc3c2C(=O)N[C@H](C(=O)NCCc2cccc(-n3nccn3)c2)CC(=O)N1C
not met
2) Cc1cc(CCNC(=O)[C@@H]2CC(=O)N(C)[C@@H](CC(C)C)C(=O)N(C)[C@@H](COCc3ccccc3)C(=O)N[C@H](Cc3ccccc3)COc3ccc4ccccc4c3C(=O)N2)on1
met
3) CC(C)C[C@H]1C(=O)N(CCC2CCCCC2)CC(=O)N[C@H](Cc2ccccc2)COc2cnc3ccccc3c2C(=O)N[C@H](C(=O)NCCc2ccc3c(c2)OCO3)CC(=O)N1C
met
4) Cc1cc(CCNC(=O)[C@@H]2CC(=O)N(C)[C@@H](CC(C)C)C(=O)N(C)[C@H](CCOCc3ccccc3)C(=O)N[C@H](Cc3ccccc3)COc3cnc4ccccc4c3C(=O)N2)on1
met
5) COc1cc(CCNC(=O)[C@@H]2CC(=O)N(C)[C@@H](CC(C)C)C(=O)N(C)[C@H](C)C(=O)N[C@H](Cc3ccccc3)COc3ccc4nccn4c3C(=O)N2)on1
met

Task item: Given the entry COc1nc(C)cc2c1C(=O)N[C@H](C(=O)NCCc1cc(C)no1)CC(=O)N(C)[C@@H](CC(C)C)C(=O)N(C)[C@H](CC(F)F)C(=O)N[C@H](Cc1ccccc1)CO2 , answer whether its Emax meets or surpasses 300%.
Reply: met

Task item: Decide: is the reported value of Emax for COc1cc(CCNC(=O)[C@@H]2CC(=O)N(C)[C@@H](CC(C)C)C(=O)N(C)[C@H](CC(F)(F)F)C(=O)N[C@H](Cc3ccccc3)COc3ccnc(OC)c3C(=O)N2)on1 equal to or greater than 300%?
Reply: met

Task item: Would you say COCCS(=O)(=O)N1CCN2C(=O)[C@H](CC(C)C)N(C)C(=O)C[C@@H](C(=O)NCCc3cccc(OC)c3)NC(=O)c3c(ccc4ccccc34)OC[C@@H](Cc3ccccc3)NC(=O)[C@H]2C1 shows Emax at minimum 300%?
Reply: not met

Task item: Entry COc1cc(OC)c2c(c1)OC[C@@H](Cc1ccccc1)NC(=O)[C@H]1CCCCN1C(=O)[C@H](CC(C)C)N(C)C(=O)C[C@@H](C(=O)NCCc1cc(C)no1)NC2=O : is its Emax no less than 300%?
Reply: met

Task item: API: above_or_equal(metric=Emax, cutoff=300%) for item Cc1cc2ccc3c(c2o1)C(=O)N[C@H](C(=O)NCCc1nc(C2CC2)no1)CC(=O)N(C)[C@@H](CC(C)C)C(=O)N(C)C1(CC1)C(=O)N[C@H](Cc1ccccc1)CO3
Reply: met
